Entry source: ChEMBL document CHEMBL1781914

# Assay Text: AUC in iv and po dosed rat
# Format: ADME, organism-based
# Condition: plasma
Measurement Type: AUC (µM·h)
Answers are plain numbers, in µM·h.

Sample records with AUC:
O=C(O)/C=C/c1ccc(OC(=O)C2(NC(=O)c3ccc4c(C5CCCCC5)c5n(c4c3)CCCCNc3ccccc3-5)CCCC2)cc1: 3.61
O=C(O)/C=C/c1ccc(OC(=O)C2(NC(=O)c3ccc4c(C5CCCCC5)c5n(c4c3)CCOc3ccccc3-5)CCCC2)cc1: 0.79
O=C(O)/C=C/c1ccc(OC(=O)C2(NC(=O)c3ccc4c(C5CCCCC5)c5n(c4c3)CC(=O)Nc3ccccc3-5)CCCC2)cc1: 0.66

Let us move to another entry and its AUC.
What value of measured AUC is listed for O=C(O)/C=C/c1ccc(OC(=O)C2(NC(=O)c3ccc4c(C5CCCCC5)c5n(c4c3)CCCc3ccccc3-5)CCCC2)cc1 ?
0.28

====

# System: Hepatitis C virus
# Assay Text: Inhibition of HCV genotype 1b NS5B polymerase expressed in Escherichia coli BL21(DE3) after 60 mins by FRET assay
# Parameters: species or system Hepatitis C virus subtype 1b
# Condition: BL21-DE3, 1 h
Hi there, I'd appreciate the recorded IC50 for every entry that follows.
Answers are plain numbers, in nM.

# annotated cases, reported IC50 shown
O=C(O)c1ccc2c(C3CCCCC3)c3n(c2c1)CCOc1ccccc1-3: 690
O=C(O)/C=C/c1ccc(OC(=O)C2(NC(=O)c3ccc4c(C5CCCCC5)c5n(c4c3)CCCc3ccccc3-5)CCCC2)cc1: 30
O=C1Cn2c(c(C3CCCCC3)c3ccc(C(=O)O)cc32)-c2ccccc2N1: 70

Identify the measured IC50 of O=C(O)/C=C/c1ccc(OC(=O)C2(NC(=O)c3ccc4c(C5CCCCC5)c5n(c4c3)CC(=O)Nc3ccccc3-5)CCCC2)cc1 for Hepatitis C virus.
20

====

Exercise: state measured clearance for each of the compounds provided.
# Assay Text: Drug clearance in rat at 2 mg/kg, iv
# Assay type: ADME, organism-based
# Design: dose 2 mg/kg, route intravenous
# Condition: in vivo

O=C(O)/C=C/c1ccc(OC(=O)C2(NC(=O)c3ccc4c(C5CCCCC5)c5n(c4c3)CC(=O)Nc3ccccc3-5)CCCC2)cc1: 13 mL/min/kg
O=C(O)/C=C/c1ccc(OC(=O)C2(NC(=O)c3ccc4c(C5CCCCC5)c5n(c4c3)CCCc3ccccc3-5)CCCC2)cc1: 250 mL/min/kg
O=C(O)/C=C/c1ccc(OC(=O)C2(NC(=O)c3ccc4c(C5CCCCC5)c5n(c4c3)CCOc3ccccc3-5)CCCC2)cc1: 17 mL/min/kg

Let us move to another entry and its clearance.
Look up clearance for this compound: O=C(O)/C=C/c1ccc(OC(=O)C2(NC(=O)c3ccc4c(C5CCCCC5)c5n(c4c3)CCCCNc3ccccc3-5)CCCC2)cc1
8.7 mL/min/kg

====

Would you mind telling me the reported bioavailability of each entry?
# Assay Text: Oral bioavailability in rat
# Type: ADME, organism-based
# Condition: in vivo

O=C(O)/C=C/c1ccc(OC(=O)C2(NC(=O)c3ccc4c(C5CCCCC5)c5n(c4c3)CCCc3ccccc3-5)CCCC2)cc1: 8%
O=C(O)/C=C/c1ccc(OC(=O)C2(NC(=O)c3ccc4c(C5CCCCC5)c5n(c4c3)CCCCNc3ccccc3-5)CCCC2)cc1: 12.3%
O=C1Cn2c(c(C3CCCCC3)c3ccc(C(=O)O)cc32)-c2ccccc2N1: 17.6%
O=C(O)/C=C/c1ccc(OC(=O)C2(NC(=O)c3ccc4c(C5CCCCC5)c5n(c4c3)CC(=O)Nc3ccccc3-5)CCCC2)cc1: 3%

Recorded bioavailability for O=C(O)/C=C/c1ccc(OC(=O)C2(NC(=O)c3ccc4c(C5CCCCC5)c5n(c4c3)CCOc3ccccc3-5)CCCC2)cc1 , please?
5%
